target: Microphthalmia-associated transcription factor (Homo sapiens) (UniProt O75030); assay: MITF inhibitors, primary screen, biochemical, AlphaScreen, human (AID 1259374); conditions: AlphaScreen MITF homodimerization, bead proximity signal; at 2.6 µM; hits give high values;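 note: 0% = vehicle wells with protein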
Sequence (O75030 whole entry, looked up): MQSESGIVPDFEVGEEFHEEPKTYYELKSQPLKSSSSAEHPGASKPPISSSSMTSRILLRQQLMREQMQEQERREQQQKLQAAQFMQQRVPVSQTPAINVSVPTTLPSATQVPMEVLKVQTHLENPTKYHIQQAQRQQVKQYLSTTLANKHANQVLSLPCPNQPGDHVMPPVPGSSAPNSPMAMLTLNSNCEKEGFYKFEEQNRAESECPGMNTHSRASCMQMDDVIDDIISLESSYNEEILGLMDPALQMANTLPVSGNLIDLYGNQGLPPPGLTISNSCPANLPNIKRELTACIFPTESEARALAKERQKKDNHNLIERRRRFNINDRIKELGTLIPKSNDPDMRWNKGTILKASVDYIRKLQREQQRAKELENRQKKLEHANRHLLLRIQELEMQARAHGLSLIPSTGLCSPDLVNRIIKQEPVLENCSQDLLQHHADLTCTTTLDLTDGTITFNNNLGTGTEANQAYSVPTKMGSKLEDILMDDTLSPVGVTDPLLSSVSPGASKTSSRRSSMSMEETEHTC
About 5,900 (0.91%) of roughly 650,000 compounds were called active. The entries come from a sample that favours actives as a whole.
I'd be grateful if you could share measured inhibition for these entries.
Dear colleague, please return just the value in %, with no unit written.

State its inhibition on Microphthalmia-associated transcription factor (Homo sapiens) (UniProt O75030): COc1cc(CN2CCN(Cc3cc(OC)c(OC)cc3OC)CC2)cc(OC)c1 75.9

State its inhibition on Microphthalmia-associated transcription factor (Homo sapiens) (UniProt O75030): C/C(N)=C(/C#N)C(=O)CSc1cccc[n+]1[O-] -1.32

State its inhibition on Microphthalmia-associated transcription factor (Homo sapiens) (UniProt O75030): N#Cc1c(-n2ncnc2-c2ccccc2)sc2c1CCCC2 -14.9

State its inhibition on Microphthalmia-associated transcription factor (Homo sapiens) (UniProt O75030): O=C1c2ccccc2C(=O)c2c1cccc2S(=O)(=O)N1CCCC1 10.2

State its inhibition on Microphthalmia-associated transcription factor (Homo sapiens) (UniProt O75030): Cc1ccc(CN2CCOCC2)c(C)c1 -2.63

State its inhibition on Microphthalmia-associated transcription factor (Homo sapiens) (UniProt O75030): CS(=O)(=O)Nc1ccc(C(=O)Nc2ccc(Br)c(Cl)c2)cc1 11.7

State its inhibition on Microphthalmia-associated transcription factor (Homo sapiens) (UniProt O75030): O=C(c1ccccc1F)N1CCN(c2ccc(-c3cccnc3)nn2)CC1 4.6

State its inhibition on Microphthalmia-associated transcription factor (Homo sapiens) (UniProt O75030): COc1ccc(C(=O)N/C(=C\c2cccc([N+](=O)[O-])c2)C(=O)NC(CC(C)C)C(=O)O)cc1 (centres undefined) -8.1

State its inhibition on Microphthalmia-associated transcription factor (Homo sapiens) (UniProt O75030): COc1cc(OC)c(OC)cc1CN1CCN(c2ccccc2F)CC1 24.1

State its inhibition on Microphthalmia-associated transcription factor (Homo sapiens) (UniProt O75030): CCOc1cc(CN2CCN(Cc3cc(OC)cc(OC)c3)C(CCO)C2)ccc1OC (centres undefined) 0.98

State its inhibition on Microphthalmia-associated transcription factor (Homo sapiens) (UniProt O75030): Cc1ccc(/C=C2\SC(=S)N(C(C)C(=O)O)C2=O)o1 (centres undefined) 69.4

State its inhibition on Microphthalmia-associated transcription factor (Homo sapiens) (UniProt O75030): O=C(CCN1C(=O)/C(=C\c2ccco2)SC1=S)Nc1cccc(C(=O)O)c1 2.65

State its inhibition on Microphthalmia-associated transcription factor (Homo sapiens) (UniProt O75030): O=C(NC1CSC/C1=N\Nc1cc([N+](=O)[O-])cc([N+](=O)[O-])c1)c1ccccc1 (centres undefined) 18

State its inhibition on Microphthalmia-associated transcription factor (Homo sapiens) (UniProt O75030): Cc1sc(NC(=O)c2ccco2)c(C(c2ccccn2)N2CCN(C)CC2)c1C (centres undefined) 12.4

State its inhibition on Microphthalmia-associated transcription factor (Homo sapiens) (UniProt O75030): CC(=O)/C=C/c1oc2ccccc2c1-c1ccc(C)o1 21.6

State its inhibition on Microphthalmia-associated transcription factor (Homo sapiens) (UniProt O75030): COc1ccc(CN2CCC(C(N)=O)CC2)cc1OC 1.23

State its inhibition on Microphthalmia-associated transcription factor (Homo sapiens) (UniProt O75030): O=C(O)CCC(C(=O)O)N1C(=O)/C(=C\c2ccco2)SC1=S (centres undefined) 62.6

State its inhibition on Microphthalmia-associated transcription factor (Homo sapiens) (UniProt O75030): O=c1c2ccccc2nc(/C=C\c2ccc(F)c(F)c2)n1-c1ccc(Cl)cc1[N+](=O)[O-] 1.53

State its inhibition on Microphthalmia-associated transcription factor (Homo sapiens) (UniProt O75030): Cc1ccc(N2C(=O)c3ccc(C(=O)NN4C(=O)c5ccccc5C4=O)cc3C2=O)cc1C 9.89

State its inhibition on Microphthalmia-associated transcription factor (Homo sapiens) (UniProt O75030): C=CCN1C(=O)/C(=C\c2cc(OC)ccc2OC)C(=O)NC1=S 18.8

State its inhibition on Microphthalmia-associated transcription factor (Homo sapiens) (UniProt O75030): CCOCc1nnc(NC(=O)C2CC(=O)N(c3ccc(C)cc3)C2)s1 (centres undefined) 9.92

State its inhibition on Microphthalmia-associated transcription factor (Homo sapiens) (UniProt O75030): COc1ccc(N(CC(=O)N2CCN(C)CC2)S(C)(=O)=O)cc1 13.7

State its inhibition on Microphthalmia-associated transcription factor (Homo sapiens) (UniProt O75030): CSc1ccc(CCNC(=O)c2cc3ccccn3n2)cc1 -9.21

State its inhibition on Microphthalmia-associated transcription factor (Homo sapiens) (UniProt O75030): O=C1NC2(CCCCC2)N(C(=O)c2ccc(Cl)cc2)C2=C1CCCC2 9.62

State its inhibition on Microphthalmia-associated transcription factor (Homo sapiens) (UniProt O75030): Clc1ccc(CN2CCOCC2)c(Cl)c1 43.8

State its inhibition on Microphthalmia-associated transcription factor (Homo sapiens) (UniProt O75030): Cc1cc(-c2ccc(S(=O)(=O)NC3CCC(C)CC3)cc2)on1 (centres undefined) 4.94

State its inhibition on Microphthalmia-associated transcription factor (Homo sapiens) (UniProt O75030): CCOC(=O)c1sc(NC(=O)C(C)Sc2nnc(CNC(=O)c3ccc(Cl)cc3Cl)n2C)c(C(=O)OCC)c1C (centres undefined) -5.12

State its inhibition on Microphthalmia-associated transcription factor (Homo sapiens) (UniProt O75030): Cc1[nH]c(=O)[nH]c(=O)c1S(=O)(=O)N1CCC(Cc2ccccc2)CC1 -4.65

State its inhibition on Microphthalmia-associated transcription factor (Homo sapiens) (UniProt O75030): CCOc1cccc2c1N[C@@H](c1ccc(C(=O)O)cc1)[C@H]1CC=C[C@@H]21 65.3

State its inhibition on Microphthalmia-associated transcription factor (Homo sapiens) (UniProt O75030): Cn1c(=O)n(Cc2cc3c(cc2Cl)OCO3)c2cccnc21 13.7

State its inhibition on Microphthalmia-associated transcription factor (Homo sapiens) (UniProt O75030): O=C(NCc1ccccc1)N1CCN(c2ccc(-c3ccncc3)nn2)CC1 -7.08

State its inhibition on Microphthalmia-associated transcription factor (Homo sapiens) (UniProt O75030): O=C(CSc1nnc2ncccn12)N1CCN(c2ccccc2F)CC1 -5.77

State its inhibition on Microphthalmia-associated transcription factor (Homo sapiens) (UniProt O75030): COc1cc(OC)c(OC)cc1CN1CCN(Cc2ccc3c(c2)OCO3)CC1 49.8

State its inhibition on Microphthalmia-associated transcription factor (Homo sapiens) (UniProt O75030): COc1cc(OC)c(OC)cc1CN1CCN(Cc2ccc(F)cc2)CC1 64

State its inhibition on Microphthalmia-associated transcription factor (Homo sapiens) (UniProt O75030): COc1cc(CN2CCN(Cc3ccccc3Br)CC2)cc(OC)c1 89.3

State its inhibition on Microphthalmia-associated transcription factor (Homo sapiens) (UniProt O75030): COc1cc(-c2cc(C(N)=O)on2)ccc1O 3.55

State its inhibition on Microphthalmia-associated transcription factor (Homo sapiens) (UniProt O75030): COc1cc(/C=C2/SC(=S)N(C(CCSC)C(=O)O)C2=O)ccc1O (centres undefined) 15.5

State its inhibition on Microphthalmia-associated transcription factor (Homo sapiens) (UniProt O75030): CC(=O)c1ccc(N2CN=C3SCC(=O)N3C2)cc1 9.73

State its inhibition on Microphthalmia-associated transcription factor (Homo sapiens) (UniProt O75030): COc1cc(CN2CCN(Cc3ccc(OC)c(OC)c3)CC2)cc(OC)c1 71.4
